Target: EGFR (Homo sapiens, UniProt P00533)
Construct: Add 7 ug A431 cell lysate per well (EGFR source); endogenous in cells; host or cells: A431
Sequence (P00533 25-1210): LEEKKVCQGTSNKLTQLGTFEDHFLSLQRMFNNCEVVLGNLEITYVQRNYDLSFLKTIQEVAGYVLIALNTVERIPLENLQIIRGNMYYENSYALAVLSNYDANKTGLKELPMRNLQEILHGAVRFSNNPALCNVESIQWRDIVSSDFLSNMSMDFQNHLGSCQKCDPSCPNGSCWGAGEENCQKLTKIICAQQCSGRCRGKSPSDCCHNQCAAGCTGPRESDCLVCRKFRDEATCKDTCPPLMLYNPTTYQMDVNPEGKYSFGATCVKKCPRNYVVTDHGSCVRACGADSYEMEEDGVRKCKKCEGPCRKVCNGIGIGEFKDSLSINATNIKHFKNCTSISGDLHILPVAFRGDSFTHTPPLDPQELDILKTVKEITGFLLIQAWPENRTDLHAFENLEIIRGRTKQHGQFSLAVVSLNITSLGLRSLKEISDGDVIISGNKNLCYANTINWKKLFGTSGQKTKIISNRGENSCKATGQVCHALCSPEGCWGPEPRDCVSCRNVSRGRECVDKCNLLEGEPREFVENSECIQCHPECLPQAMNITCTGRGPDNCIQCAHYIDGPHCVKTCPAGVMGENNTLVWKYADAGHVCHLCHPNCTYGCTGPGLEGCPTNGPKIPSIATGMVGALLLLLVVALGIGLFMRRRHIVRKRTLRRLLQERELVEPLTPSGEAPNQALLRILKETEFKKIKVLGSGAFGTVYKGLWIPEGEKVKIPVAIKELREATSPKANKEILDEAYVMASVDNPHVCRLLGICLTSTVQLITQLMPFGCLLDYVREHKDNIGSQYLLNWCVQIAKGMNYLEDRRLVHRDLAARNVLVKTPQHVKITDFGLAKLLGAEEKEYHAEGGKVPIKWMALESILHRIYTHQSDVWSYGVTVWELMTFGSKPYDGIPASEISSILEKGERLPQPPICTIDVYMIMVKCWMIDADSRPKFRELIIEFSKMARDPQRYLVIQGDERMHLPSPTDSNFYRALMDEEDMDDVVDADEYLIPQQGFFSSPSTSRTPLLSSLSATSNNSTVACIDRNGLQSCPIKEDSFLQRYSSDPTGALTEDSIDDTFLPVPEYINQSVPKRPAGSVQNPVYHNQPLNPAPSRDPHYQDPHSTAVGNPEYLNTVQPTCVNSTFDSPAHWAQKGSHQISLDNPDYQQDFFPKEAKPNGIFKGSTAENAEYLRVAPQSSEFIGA
Experiment: EGFR ELISA assay (in vitro kinase activity, EGFR captured from A431 cell lysate)
Format: biochemical
Design: concentration or dose not given beside the values
ASSAY_METRIC: Biochem EGFR %Inhibition

For each entry beneath this line, provide reported Biochem EGFR %Inhibition.
1. COc1ccc(C=C2C(=O)Nc3ccc(Br)c(C)c32)c(OC)c1 [10719/C04]
2. CCOc1cccc(C=C2C(=O)Nc3c(Br)cc(Br)cc32)c1O [10734/A02]
3. O=C1Nc2ccc(CCCl)cc2C1=Cc1cc(O)ccc1O [10727/G10]

1: 14.4%; 2: 0.0%; 3: 85.1%

For each entry beneath this line, provide reported Biochem EGFR %Inhibition.
1. CNS(=O)(=O)c1ccc2c(c1)C(=Cc1ccc(O)c(O)c1O)C(=O)N2 [10723/D02]
2. O=C1Nc2ccc(S(=O)(=O)N3CCOCC3)cc2C1=Cc1sccc1Br [10725/F02]

1. 63.2%
2. -3.7%

From: patent EP1247803A2
